Just for reference, ChEMBL document CHEMBL1201862 is where these values come from.

tested on: BT-549; test: NCI tumour cell line growth inhibition, 48 h
The source made the active and inactive calls. No stated cut-off is given here; in the data, active = GI50 up to about 1.1 µM and inactive = higher.
Classes used: label 1 = active, label 0 = inactive

{"COMPOUND": "CC1OC(NCCNCCNC2OC(C)C(O)C(O)C2O)C(O)C(O)C1O (stereo not given)", "LABEL": "label 0"}
{"COMPOUND": "CS(=O)(=O)OCCn1c(=O)n(CCOS(C)(=O)=O)c(=O)n(CCOS(C)(=O)=O)c1=O", "LABEL": "label 0"}
{"COMPOUND": "CCOC(=O)C(C(=O)OCC)=C1NC2(c3ccccc3Nc3ccc(C)cc32)C(C#N)S1 (stereo not given)", "LABEL": "label 0"}
{"COMPOUND": "Cc1ccc2c(c1)C(C(=O)N[C@@H]1C(=O)N3[C@@H]1SC(C)(C)[C@@H]3C(=O)O)OCCC2 (stereo not given in full)", "LABEL": "label 0"}
{"COMPOUND": "CN(C)CCNS(=O)(=O)N(C)C", "LABEL": "label 0"}
{"COMPOUND": "O=C1C(NCCN2CCOCC2)=C(Cl)C(=O)c2ncccc21", "LABEL": "label 0"}
{"COMPOUND": "COc1ccc(-c2cc(O)c3c(C)cc(C)nc3n2)cc1", "LABEL": "label 0"}
{"COMPOUND": "CCOc1cc(C2CC(c3ccc(NS(=O)(=O)c4cc([N+](=O)[O-])ccc4C)cc3)=NN2c2ccc([N+](=O)[O-])cc2[N+](=O)[O-])ccc1O (stereo not given)", "LABEL": "label 0"}
{"COMPOUND": "COc1ccc2c(c1OC)C(C(Cl)(Cl)Cl)N1CCc3cc4c(cc3C1=C2)OCO4 (stereo not given)", "LABEL": "label 1"}
{"COMPOUND": "COC(=O)C1C(C(=O)OC)C1(Br)CBr (stereo not given)", "LABEL": "label 0"}
{"COMPOUND": "Cc1ccc(/N=C2\\SC(=S)N(CCC[N+](C)(C)C)\\C2=N/c2ccc(C)cc2)cc1", "LABEL": "label 0"}
{"COMPOUND": "O=C(O)CS(=O)(=O)C(c1ccccc1)c1ccccc1", "LABEL": "label 0"}
{"COMPOUND": "Cn1c2ncccc2n2c(=O)cc(O)cc12", "LABEL": "label 0"}
{"COMPOUND": "COc1cc(CN2CCCCC2)cc2cc(C(=O)O)c(=O)oc12", "LABEL": "label 0"}
{"COMPOUND": "O=c1[nH]c2cc3[nH]c4ncccc4c(=O)c3cc2[nH]1", "LABEL": "label 0"}
{"COMPOUND": "O=C1c2cccnc2S(=O)(=O)N1c1ccc([N+](=O)[O-])cc1", "LABEL": "label 0"}
{"COMPOUND": "O=c1[nH]c2ccccc2n1CCCN1CCC(n2c(=O)[nH]c3cc(Cl)ccc32)CC1 [DOMPERIDONE]", "LABEL": "label 0"}
{"COMPOUND": "O=C(N/N=C(COc1ccc(Cl)cc1)\\N=C\\c1cccnc1)c1ccncc1", "LABEL": "label 0"}
{"COMPOUND": "COc1cccc(C2c3cc4c(cc3OC(Nc3ccccc3)C2C)OCO4)c1O (stereo not given)", "LABEL": "label 0"}
{"COMPOUND": "O=C1CCN(CCC(F)(F)C(F)(F)C(F)(F)C(F)(F)C(F)(F)C(F)(F)F)C(=S)N1CCC(F)(F)C(F)(F)C(F)(F)C(F)(F)C(F)(F)C(F)(F)F", "LABEL": "label 0"}
